FYI, the data here is from ChEMBL document CHEMBL1125640.

- ASSAY OVERVIEW: Hill coefficient value of the compound
# reported Hill coefficient; entries follow
I'd appreciate a reply containing only the number, no unit.

Would you please look over these solved cases?
{"columns": ["COMPOUND", "READING"],
 "data": [
  ["COC(=O)C1C2CC[C@H](C[C@H]1OC(=O)c1ccccc1)N2C (stereo in doubt; 4)", 0.92],
  ["COC(=O)[C@@H]1[C@@H](OC(=O)c2ccccc2)CC2CC[C@H]1N2C", 0.95],
  ["COC(=O)C1C2CC[C@H](C[C@H]1OC(=O)c1ccccc1)N2C (stereo in doubt; 3)", 2.81],
  ["COC(=O)[C@H]1[C@H]2CCC(C[C@H]1OC(=O)c1ccccc1)N2C", 1.3],
  ["COC(=O)[C@@H]1[C@H]2CCC(C[C@H]1OC(=O)c1ccccc1)N2C", 1.19],
  ["COC(=O)[C@H]1[C@@H](OC(=O)c2ccccc2)CC2CC[C@H]1N2C", 2.6],
  ["COC(=O)[C@H]1[C@@H](OC(=O)c2ccccc2)C[C@@H]2CC[C@H]1N2C (stereo in doubt; 2)", 0.96]
]}

Moving on to another compound below.
Given the compound COC(=O)[C@H]1[C@@H](OC(=O)c2ccccc2)C[C@@H]2CC[C@H]1N2C (stereo in doubt; 1) , what is its reported Hill coefficient?
0.91
